target: IGF1R (Homo sapiens, UniProt P08069); construct: purchased Promega; assay: ADP-Glo kinase inhibitory assay, IGF1R; type: biochemical; settings: read-out: % Inhibition at 10 nM, IGF1R
Sequence (P08069 31-1367): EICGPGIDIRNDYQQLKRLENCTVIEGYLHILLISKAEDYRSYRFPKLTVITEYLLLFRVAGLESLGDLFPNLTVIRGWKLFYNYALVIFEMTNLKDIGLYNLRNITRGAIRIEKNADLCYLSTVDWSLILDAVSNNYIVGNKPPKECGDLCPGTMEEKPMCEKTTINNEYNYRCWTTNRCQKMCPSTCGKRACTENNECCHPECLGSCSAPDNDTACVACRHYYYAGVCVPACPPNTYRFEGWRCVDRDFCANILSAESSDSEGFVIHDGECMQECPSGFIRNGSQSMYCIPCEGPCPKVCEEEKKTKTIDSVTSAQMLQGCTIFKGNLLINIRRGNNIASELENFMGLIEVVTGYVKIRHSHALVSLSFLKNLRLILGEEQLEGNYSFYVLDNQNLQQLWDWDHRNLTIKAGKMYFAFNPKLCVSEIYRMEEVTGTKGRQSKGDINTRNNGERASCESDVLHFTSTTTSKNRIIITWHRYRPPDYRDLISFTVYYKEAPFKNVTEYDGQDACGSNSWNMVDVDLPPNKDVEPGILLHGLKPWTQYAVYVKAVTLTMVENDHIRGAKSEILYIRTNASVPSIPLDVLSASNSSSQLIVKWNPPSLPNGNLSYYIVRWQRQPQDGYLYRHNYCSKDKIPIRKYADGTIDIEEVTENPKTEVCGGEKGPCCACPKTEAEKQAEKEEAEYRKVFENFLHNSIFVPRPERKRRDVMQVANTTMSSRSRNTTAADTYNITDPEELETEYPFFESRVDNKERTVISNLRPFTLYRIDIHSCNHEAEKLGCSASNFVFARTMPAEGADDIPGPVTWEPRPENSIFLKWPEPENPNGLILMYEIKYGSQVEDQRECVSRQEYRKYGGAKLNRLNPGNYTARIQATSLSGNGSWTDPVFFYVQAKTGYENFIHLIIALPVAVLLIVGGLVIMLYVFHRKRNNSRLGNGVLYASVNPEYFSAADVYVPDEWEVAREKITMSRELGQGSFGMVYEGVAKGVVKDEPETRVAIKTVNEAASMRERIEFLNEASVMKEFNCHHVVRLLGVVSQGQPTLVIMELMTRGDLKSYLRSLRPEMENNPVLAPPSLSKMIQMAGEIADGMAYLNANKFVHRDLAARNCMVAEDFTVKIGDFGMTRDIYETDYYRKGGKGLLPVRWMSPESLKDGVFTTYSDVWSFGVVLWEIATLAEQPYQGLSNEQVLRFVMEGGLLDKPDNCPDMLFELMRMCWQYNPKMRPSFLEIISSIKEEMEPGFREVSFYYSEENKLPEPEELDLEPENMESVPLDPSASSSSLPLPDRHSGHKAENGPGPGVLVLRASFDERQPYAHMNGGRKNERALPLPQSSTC
This listing pairs compounds with measured inhibition at 0.01 µM.
Please reply with the bare figure in % and do not write the unit itself.

Take a look at these entries with their results.
Cc1cn(-c2cc(NCc3ccc(C(=O)Nc4cc([N+](=O)[O-])ccc4C)cc3)cc(C(F)(F)F)c2)cn1 [Compound 15] = 0
CNC(=O)c1cc(Oc2ccc(NC(=O)c3ccc(CNc4cc([N+](=O)[O-])ccc4C)cc3)cc2)ccn1 [Compound 17] = 0
Cc1ccc([N+](=O)[O-])cc1NCc1ccc(C(=O)Nc2cccc(C(F)(F)F)c2)cc1 [Compound 18] = 0

Input: Dear colleague, I am looking for the recorded inhibition at 0.01 µM of the following compound: COc1ccc(C(=O)N2CCN(Cc3ccc(C(=O)Nc4cc(-n5cnc(C)c5)cc(C(F)(F)F)c4)cc3)CC2)cc1 [Compound 28i]
Output: 3

====

molecular target: PDGFRa (Homo sapiens, UniProt P16234); construct: purchased Promega; assay: ADP-Glo kinase inhibitory assay, PDGFRa; type: biochemical; conditions: read-out: % Inhibition at 10 nM, PDGFRa
Parameter: inhibition at 0.01 µM. Scope: all listed entries.
Please give a number only; it is taken to be in %.

Cc1cn(-c2cc(NC(=O)c3ccc(CNc4cccc(C(F)(F)F)c4)cc3)cc(C(F)(F)F)c2)cn1 = 55

Input: For Cc1cn(-c2cc(NCc3ccc(C(=O)Nc4cccc(C(F)(F)F)c4)cc3)cc(C(F)(F)F)c2)cn1 , what is its reported inhibition at 0.01 µM?
Output: 59

Input: Name the recorded inhibition at 0.01 µM for Cc1ccc(NC(=O)c2ccc(CN3CCN(C)CC3)cc2)cc1Nc1nccc(-c2cccnc2)n1 [Imatinib, reference compound] .
Output: 56

Input: Field request: inhibition at 0.01 µM | item: Cc1cn(-c2cc(NC(=O)c3ccc(CN4CCN(C(=O)c5ccccc5F)CC4)cc3)cc(C(F)(F)F)c2)cn1 [Compound 28j]
Output: 8

====

Here, each record is paired with measured inhibition at 0.01 µM data.
biological target: InsR (Homo sapiens); construct: purchased Promega; test: ADP-Glo kinase inhibitory assay, InsR; assay type: biochemical; conditions: read-out: % Inhibition at 10 nM, InsR
Sequence (P06213 28-1382): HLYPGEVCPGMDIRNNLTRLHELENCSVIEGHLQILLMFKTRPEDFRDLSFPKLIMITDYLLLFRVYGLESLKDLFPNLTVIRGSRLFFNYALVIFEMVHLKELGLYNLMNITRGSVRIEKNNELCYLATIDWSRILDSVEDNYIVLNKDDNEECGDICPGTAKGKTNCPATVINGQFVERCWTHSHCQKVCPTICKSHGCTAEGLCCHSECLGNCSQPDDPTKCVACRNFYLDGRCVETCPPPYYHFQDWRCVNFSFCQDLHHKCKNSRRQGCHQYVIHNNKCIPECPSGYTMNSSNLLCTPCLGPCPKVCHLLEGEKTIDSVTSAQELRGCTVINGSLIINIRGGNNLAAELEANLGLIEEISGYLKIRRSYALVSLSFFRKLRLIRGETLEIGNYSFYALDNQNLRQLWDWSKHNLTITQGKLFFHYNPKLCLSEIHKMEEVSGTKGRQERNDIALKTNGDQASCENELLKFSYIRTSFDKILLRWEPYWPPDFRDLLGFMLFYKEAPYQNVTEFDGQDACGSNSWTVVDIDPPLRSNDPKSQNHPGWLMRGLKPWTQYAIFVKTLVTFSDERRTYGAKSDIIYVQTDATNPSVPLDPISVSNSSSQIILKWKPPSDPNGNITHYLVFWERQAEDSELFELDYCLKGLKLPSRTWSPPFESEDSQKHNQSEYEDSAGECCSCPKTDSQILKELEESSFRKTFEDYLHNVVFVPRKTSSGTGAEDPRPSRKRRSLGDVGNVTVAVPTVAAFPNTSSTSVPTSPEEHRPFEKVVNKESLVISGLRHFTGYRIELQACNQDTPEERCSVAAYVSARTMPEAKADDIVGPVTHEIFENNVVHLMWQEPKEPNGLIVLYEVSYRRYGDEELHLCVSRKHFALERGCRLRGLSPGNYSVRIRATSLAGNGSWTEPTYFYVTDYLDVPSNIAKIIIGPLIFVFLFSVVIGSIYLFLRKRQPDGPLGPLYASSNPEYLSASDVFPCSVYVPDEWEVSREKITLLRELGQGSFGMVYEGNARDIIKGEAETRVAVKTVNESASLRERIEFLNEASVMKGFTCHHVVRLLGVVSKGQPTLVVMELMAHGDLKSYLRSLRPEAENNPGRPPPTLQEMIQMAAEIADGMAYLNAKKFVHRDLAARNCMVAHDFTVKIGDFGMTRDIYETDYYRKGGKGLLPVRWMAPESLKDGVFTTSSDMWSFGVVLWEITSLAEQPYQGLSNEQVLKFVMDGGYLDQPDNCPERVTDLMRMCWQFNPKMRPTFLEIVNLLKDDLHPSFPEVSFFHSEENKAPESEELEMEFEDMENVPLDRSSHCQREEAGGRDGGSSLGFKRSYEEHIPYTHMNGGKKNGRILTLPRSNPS
Numeric answer plus unit only.

// below: answered compounds
O=C(Nc1cccc(C(F)(F)F)c1)c1ccc(CNc2nccc(-c3cccnc3)n2)cc1 = 0%
Cc1cn(-c2cc(NC(=O)c3ccc(CN4CCN(C(=O)c5cccc(F)c5)CC4)cc3)cc(C(F)(F)F)c2)cn1 [Compound 28k] = 33%
Cc1cn(-c2cc(NCc3ccc(C(=O)Nc4cc([N+](=O)[O-])ccc4C)cc3)cc(C(F)(F)F)c2)cn1 = 43%

Please find the next compound below.
Input: Request - read-out inhibition at 0.01 µM | tested on InsR (Homo sapiens) | compound CNC(=O)c1cc(Oc2ccc(NCc3ccc(C(=O)Nc4cccc(C(F)(F)F)c4)cc3)cc2)ccn1
Output: 0%

====

The entries below come with measured melting point values attached.

Cc1cn(-c2cc(NC(=O)c3ccc(CNc4cccc(C(F)(F)F)c4)cc3)cc(C(F)(F)F)c2)cn1 [Compound 11] = 83 to 85 °C
CNC(=O)c1cc(Oc2ccc(NCc3ccc(C(=O)Nc4cc(-n5cnc(C)c5)cc(C(F)(F)F)c4)cc3)cc2)ccn1 [Compound 10] = 153 to 156 °C

Input: Using the record for COc1ccc(C(=O)N2CCN(Cc3ccc(C(=O)Nc4cc(-n5cnc(C)c5)cc(C(F)(F)F)c4)cc3)CC2)cc1 [Compound 28i] , report its melting point.
Output: 98 to 102 °C

Input: Look up melting point for this compound: CNC(=O)c1cc(Oc2ccc(NCc3ccc(C(=O)Nc4cccc(C(F)(F)F)c4)cc3)cc2)ccn1 [Compound 20]
Output: 170 to 171 °C

====

target: HER-4 (Homo sapiens, UniProt Q15303); construct: purchased Promega; assay: ADP-Glo kinase inhibitory assay, HER-4; type: biochemical; conditions: read-out: % Inhibition at 10 nM, HER-4
Sequence (Q15303 26-1308): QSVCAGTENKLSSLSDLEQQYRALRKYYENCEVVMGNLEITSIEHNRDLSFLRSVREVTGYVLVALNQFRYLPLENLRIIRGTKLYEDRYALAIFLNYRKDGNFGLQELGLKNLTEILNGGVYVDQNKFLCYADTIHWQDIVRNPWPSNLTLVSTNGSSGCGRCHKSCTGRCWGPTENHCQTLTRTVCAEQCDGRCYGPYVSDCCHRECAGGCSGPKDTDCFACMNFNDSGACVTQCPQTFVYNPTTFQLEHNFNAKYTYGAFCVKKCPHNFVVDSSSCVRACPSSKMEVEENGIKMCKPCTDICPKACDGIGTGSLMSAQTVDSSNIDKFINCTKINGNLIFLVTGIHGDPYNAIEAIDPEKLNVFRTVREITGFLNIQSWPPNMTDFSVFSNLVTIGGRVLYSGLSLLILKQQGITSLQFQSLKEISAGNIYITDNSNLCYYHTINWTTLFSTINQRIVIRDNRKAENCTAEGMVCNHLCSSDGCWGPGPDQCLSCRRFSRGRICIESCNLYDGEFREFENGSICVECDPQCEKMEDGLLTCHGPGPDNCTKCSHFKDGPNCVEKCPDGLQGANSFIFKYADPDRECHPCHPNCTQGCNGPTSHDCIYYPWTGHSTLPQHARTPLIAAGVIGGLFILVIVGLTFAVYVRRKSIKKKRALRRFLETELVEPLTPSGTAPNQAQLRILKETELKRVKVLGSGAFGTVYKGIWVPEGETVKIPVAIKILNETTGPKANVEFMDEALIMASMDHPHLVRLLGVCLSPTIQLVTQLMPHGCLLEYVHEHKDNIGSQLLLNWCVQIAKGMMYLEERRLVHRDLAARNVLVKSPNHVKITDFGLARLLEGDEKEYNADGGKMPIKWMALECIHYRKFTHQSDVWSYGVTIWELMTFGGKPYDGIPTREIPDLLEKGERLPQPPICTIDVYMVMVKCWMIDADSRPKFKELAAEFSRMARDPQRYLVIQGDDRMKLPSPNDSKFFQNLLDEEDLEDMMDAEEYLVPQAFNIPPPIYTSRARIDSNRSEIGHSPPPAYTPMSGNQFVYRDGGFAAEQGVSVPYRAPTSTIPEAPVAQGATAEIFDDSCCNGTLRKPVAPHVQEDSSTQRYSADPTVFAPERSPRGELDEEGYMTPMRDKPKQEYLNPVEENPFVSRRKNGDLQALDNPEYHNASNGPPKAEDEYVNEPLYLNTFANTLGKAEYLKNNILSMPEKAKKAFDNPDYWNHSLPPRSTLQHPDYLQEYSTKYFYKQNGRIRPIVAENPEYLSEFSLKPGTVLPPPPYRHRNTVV
experimental endpoint: inhibition at 0.01 µM (%)
Reply numerically in %, unit not repeated.

COc1ccc(C(=O)N2CCN(Cc3ccc(C(=O)Nc4cc(-n5cnc(C)c5)cc(C(F)(F)F)c4)cc3)CC2)cc1 [Compound 28i] = 0

Input: Which measured inhibition at 0.01 µM belongs to CNC(=O)c1cc(Oc2ccc(NCc3ccc(C(=O)Nc4cccc(C(F)(F)F)c4)cc3)cc2)ccn1 , tested on HER-4 (Homo sapiens, UniProt Q15303)?
Output: 57

Input: Lookup: inhibition at 0.01 µM / HER-4 (Homo sapiens, UniProt Q15303) / Cc1cn(-c2cc(NC(=O)c3ccc(CNc4cccc(C(F)(F)F)c4)cc3)cc(C(F)(F)F)c2)cn1
Output: 49

Input: Lab note: need inhibition at 0.01 µM for CNC(=O)c1cc(Oc2ccc(NCc3ccc(C(=O)Nc4cc(-n5cnc(C)c5)cc(C(F)(F)F)c4)cc3)cc2)ccn1 on HER-4 (Homo sapiens, UniProt Q15303), anyone have it?
Output: 51

Input: Record lookup: for HER-4 (Homo sapiens, UniProt Q15303), what inhibition at 0.01 µM belongs to O=C(Nc1cccc(C(F)(F)F)c1)c1ccc(CNc2nccc(-c3cccnc3)n2)cc1 ?
Output: 44

====

target: PDGFRb (Homo sapiens, UniProt P09619); construct: purchased Promega; test: ADP-Glo kinase inhibitory assay, PDGFRb; assay type: biochemical; details: read-out: % Inhibition at 10 nM, PDGFRb
Sequence (P09619 33-1106): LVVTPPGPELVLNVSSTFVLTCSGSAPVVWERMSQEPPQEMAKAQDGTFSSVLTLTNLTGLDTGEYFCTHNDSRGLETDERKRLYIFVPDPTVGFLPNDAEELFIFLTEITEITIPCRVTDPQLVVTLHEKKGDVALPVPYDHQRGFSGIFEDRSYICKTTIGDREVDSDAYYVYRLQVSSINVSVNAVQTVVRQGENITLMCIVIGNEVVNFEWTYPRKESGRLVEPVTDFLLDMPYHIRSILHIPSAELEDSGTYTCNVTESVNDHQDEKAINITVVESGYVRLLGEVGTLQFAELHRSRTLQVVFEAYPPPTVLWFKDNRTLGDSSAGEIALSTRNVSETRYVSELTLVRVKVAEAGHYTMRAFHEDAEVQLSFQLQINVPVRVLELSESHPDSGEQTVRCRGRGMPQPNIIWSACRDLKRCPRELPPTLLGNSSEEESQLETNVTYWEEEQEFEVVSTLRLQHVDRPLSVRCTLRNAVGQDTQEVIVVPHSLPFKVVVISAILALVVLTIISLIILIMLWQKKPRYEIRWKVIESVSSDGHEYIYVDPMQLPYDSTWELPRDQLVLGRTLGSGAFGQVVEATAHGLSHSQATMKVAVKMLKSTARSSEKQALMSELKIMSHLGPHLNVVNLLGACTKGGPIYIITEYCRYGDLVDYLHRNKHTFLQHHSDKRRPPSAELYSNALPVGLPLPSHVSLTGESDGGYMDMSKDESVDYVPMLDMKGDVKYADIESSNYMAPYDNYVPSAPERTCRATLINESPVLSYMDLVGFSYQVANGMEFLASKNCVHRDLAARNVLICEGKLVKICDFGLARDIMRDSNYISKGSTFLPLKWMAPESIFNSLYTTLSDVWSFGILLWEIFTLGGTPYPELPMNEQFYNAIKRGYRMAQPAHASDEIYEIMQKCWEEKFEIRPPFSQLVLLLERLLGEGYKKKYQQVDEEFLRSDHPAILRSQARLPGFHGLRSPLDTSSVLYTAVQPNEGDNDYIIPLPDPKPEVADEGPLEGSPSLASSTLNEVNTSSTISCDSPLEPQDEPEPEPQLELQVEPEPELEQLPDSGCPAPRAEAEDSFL
The entries below are paired with their reported inhibition at 0.01 µM.
State just the number; it will be interpreted in %.

Illustrative cases are given below, each with its answer.
CCOC(=O)CC[C@H](NC(=O)c1ccc(CNc2nccc(-c3cccnc3)n2)cc1)C(=O)OCC = 0
O=C(Nc1cccc(C(F)(F)F)c1)c1ccc(CNc2nccc(-c3cccnc3)n2)cc1 = 0
CCOC(=O)CCC(NC(=O)c1ccc(CNc2cc(-n3cnc(C)c3)cc(C(F)(F)F)c2)cc1)C(=O)OCC (stereo not drawn) = 0
Cc1cn(-c2cc(NC(=O)c3ccc(CNc4cccc(C(F)(F)F)c4)cc3)cc(C(F)(F)F)c2)cn1 = 0
Cc1cn(-c2cc(NCc3ccc(C(=O)Nc4cc([N+](=O)[O-])ccc4C)cc3)cc(C(F)(F)F)c2)cn1 = 0

Input: Quick one: inhibition at 0.01 µM for CNC(=O)c1cc(Oc2ccc(NCc3ccc(C(=O)Nc4cc(-n5cnc(C)c5)cc(C(F)(F)F)c4)cc3)cc2)ccn1 ?
Output: 0

====

target: IGF1R (Homo sapiens, UniProt P08069); construct: purchased Promega; test: ADP-Glo kinase inhibitory assay, IGF1R; assay type: biochemical; conditions: read-out: % Inhibition at 10 nM, IGF1R
experimental endpoint: inhibition at 0.01 µM (%)
Write the number in % without appending the unit.

The cases that follow already have their inhibition at 0.01 µM on record.
Cc1ccc(NC(=O)c2ccc(CN3CCN(C)CC3)cc2)cc1Nc1nccc(-c2cccnc2)n1 [Imatinib, reference compound] = 0
CCOC(=O)CCC(NC(=O)c1ccc(CNc2cc(-n3cnc(C)c3)cc(C(F)(F)F)c2)cc1)C(=O)OCC (stereo not drawn) = 0

Input: Return inhibition at 0.01 µM measured with IGF1R (Homo sapiens, UniProt P08069) given this compound: CNC(=O)c1cc(Oc2ccc(NCc3ccc(C(=O)Nc4cccc(C(F)(F)F)c4)cc3)cc2)ccn1
Output: 18

====

Biological target: InsR (Homo sapiens)
Construct: purchased Promega
Assay: ADP-Glo kinase inhibitory assay, InsR
Format: biochemical
Settings: read-out: % Inhibition at 10 nM, InsR
Text: We investigated the kinase selectivity of targeted compounds against eight receptor tyrosine kinases including EGFR (epidermal growth factor receptor), HER-2 and HER4 (human epidermal growth factor receptor), IGF1R (insulin like growth factor 1 receptor), InsR (gene insulin receptor), KDR (kinase insert domain receptor), and PDGFRa and PDGFRb (platelet-derived growth factor receptors). […] It measures kinase activity by quantitating the amount of ATP remaining in solution following a kinase reaction. […]
experimental endpoint: inhibition at 0.01 µM (%)
Entry rule: numbers only, all in %.

Use the examples below as a reference point.
CNC(=O)c1cc(Oc2ccc(NCc3ccc(C(=O)Nc4cc(-n5cnc(C)c5)cc(C(F)(F)F)c4)cc3)cc2)ccn1 = 46
Cc1ccc([N+](=O)[O-])cc1NCc1ccc(C(=O)Nc2cccc(C(F)(F)F)c2)cc1 = 0
CNC(=O)c1cc(Oc2ccc(NC(=O)c3ccc(CNc4cc([N+](=O)[O-])ccc4C)cc3)cc2)ccn1 = 49
Cc1cn(-c2cc(NC(=O)c3ccc(CN4CCN(C(=O)c5ccccc5F)CC4)cc3)cc(C(F)(F)F)c2)cn1 [Compound 28j] = 50
CCOC(=O)CCC(NC(=O)c1ccc(CNc2cc(-n3cnc(C)c3)cc(C(F)(F)F)c2)cc1)C(=O)OCC (centres unmarked) = 23

Input: // inhibition at 0.01 µM lookup, key: CCOC(=O)CC[C@H](NC(=O)c1ccc(CNc2nccc(-c3cccnc3)n2)cc1)C(=O)OCC
Output: 49

Input: Given the entry Cc1cn(-c2cc(NC(=O)c3ccc(CCl)cc3)cc(C(F)(F)F)c2)cn1 , report its measured inhibition at 0.01 µM.
Output: 57

Input: What does the record list as inhibition at 0.01 µM for Cc1cn(-c2cc(NC(=O)c3ccc(CN4CCN(C(=O)c5cccnc5)CC4)cc3)cc(C(F)(F)F)c2)cn1 [Compound 28l] ?
Output: 0
